PROPERTY LABEL: melting point

Worked examples follow.
>>> recorded_measurement("Cc1ccc(-c2nnc(N3CCCCC3)nc2-c2ccc(C)cc2)cc1")
"141 to 143 °C"
>>> recorded_measurement("COc1ccc2c(c1Br)CCC1C(=O)NC(=O)C21 (centres undefined)")
"243 to 245 °C"
>>> recorded_measurement("N#Cc1c(N)c2ccccc2[nH]c1=O")
"> 250 °C"
>>> recorded_measurement("CCC[C@H]1CC[C@H](c2ncc(C(N)=O)cn2)CC1")
"234 to 235 °C"
>>> recorded_measurement("CC1(C(=O)c2c[nH]c3ncc(Br)nc23)CCCC1")
"207 to 208 °C"

Provide melting point values for the following items, in order.
1. c1cnc(-c2nc(C3CC3)no2)cn1
2. CN1C(=O)[C@@H](NC(=O)OC(C)(C)C)COc2ccccc21
3. Clc1ccc2[nH]c(SCc3nc4ccccc4s3)nc2c1
4. CCOC(=O)c1c(C(C)C)c[nH]c1C
5. O=C(CN1CCNCCNCCNCC1)Nc1c(I)cc(I)c(C(=O)O)c1I

Response given:
1. 61 to 64 °C
2. 152 °C
3. 176 to 180 °C
4. 67 to 68.5 °C
5. 245 to 246 °C

Provide melting point values for the following items, in order.
1. COc1ccc(C(Nc2ccc(C(=N)NO)cc2)C(=O)O)c(OCCO)c1 (racemic)
2. CCCC1=C(C#N)C(c2ccccc2Cl)c2c(n[nH]c2C2CCCC2)N1 (centres undefined)
3. COc1ccc2c(C(C)C(=O)OC3CC(=O)NC3=O)cccc2c1 (centres undefined)
4. CCOC(=O)c1c(C)nc(Cl)c([N+](=O)[O-])c1Cl
5. Nc1ccc2[nH]nc(-c3ccccc3)c2c1
6. COc1ccc(-c2c[nH]c3c(OC)ccc(OC)c3c2=O)cc1
7. CN1C(=O)C2CC2(c2ccc(N)cc2)C1=O (centres undefined)
8. CCOC(=O)/C=C/c1cc(-c2ccccc2)n(-c2ccc(S(C)(=O)=O)cc2)n1

Response given:
1: 205 °C; 2: > 270 °C; 3: 126 °C; 4: 45 to 46 °C; 5: 104 °C; 6: 124 to 125 °C; 7: 137 to 139 °C; 8: 164 to 168 °C

Challenge: Bench note: what melting point did Cc1ccccc1[C@@H](CCC(=O)O)Oc1cc(OCc2cccnc2)ccc1[N+](=O)[O-] show?
Response given: 117 to 119 °C

----------
Kindly state melting point for each of the entries shown.

Worked examples follow.
>>> recorded_measurement("NNC(=O)c1ncn2c1[C@@H]1CCCN1C(=O)c1sccc1-2")
"> 260 °C"
>>> recorded_measurement("CCOC(=O)/C=C(\\c1ccc(C)cc1)c1ccc(OC)c(OC)c1")
"69 to 70 °C"
>>> recorded_measurement("CCS(=O)(=O)c1ccc(S(=O)(=O)CC)nc1")
"148 to 150 °C"
>>> recorded_measurement("CSC1=NC2=NC3=C(CSCC3=O)CN2N1")
"295 to 297 °C"
>>> recorded_measurement("CC(N)C(=O)Nc1cc(OCC(F)(F)F)ccc1-c1cccnc1 (centres undefined)")
"135 to 140 °C"
>>> recorded_measurement("COc1ccc(Cn2nnc(C3=C(O)c4ccccc4S(=O)(=O)N3C)n2)cc1")
"178 to 181 °C"

Provide melting point values for the following items, in order.
1. COc1ccccc1I
2. Cc1ncc(CN2CCc3cc(-c4ccc(Cl)cc4)ccc3C2)c(N)n1
3. CCS(=O)(=O)CCOc1cc(C)c(-c2cccc(COc3ccc(CCC(=O)O)c(F)c3)c2)c(C)c1
4. CC(CN1CCC(c2noc3cc(F)ccc23)CC1)N1Cc2ccccc2C1 (centres undefined)
5. COC(=O)c1ccccc1-n1c(CCl)nc2cccc(Cl)c2c1=O
6. CC1(C)Oc2cc(Br)sc2C(N2CCCCC2=O)C1O (centres undefined)
7. CC(C)(C)OC(=O)NC[C@H]1CN(c2ccc3c(c2)CCCc2cnoc2-3)C(=O)O1
8. CC(Nc1ccc(F)c(F)c1F)C(=O)O (centres undefined)

Response given:
1. 44.5 to 46.5 °C
2. 205 to 208 °C
3. 126 to 127 °C
4. 164 to 165 °C
5. 177 to 178 °C
6. 200 to 202 °C
7. 180 to 184 °C
8. 114 to 119 °C

Provide melting point values for the following items, in order.
1. CCC1(O)CCC2(C)C(CCC3C4CCC(C5(C)OCCO5)C4(C)CC(=O)C32)C1 (centres undefined)
2. COc1cc(O)c2c(=O)c3ccccc3n(C)c2c1
3. ClCCCCCCOc1ccc(C2=C(c3ccccc3)CCCc3cc(OC4CCCCO4)ccc32)cc1 (centres undefined)
4. CCCCCOc1nc(N)nc2c1ncn2C1C=CC(CO)C1 (centres undefined)
5. O=C1N(Cc2ccc(Cl)s2)c2ccc(F)cc2C12COc1cc3c(cc12)OCO3 (centres undefined)
6. OC(c1ccc(F)cc1)c1ccc2noc(-c3cccc(Cl)c3)c2c1 (centres undefined)

Response given:
1: 144 °C; 2: 162 to 164 °C; 3: 84 to 86 °C; 4: 139 to 141 °C; 5: 142 to 144 °C; 6: 171 °C
